- System: UniProt:Q14123
- Assay Overview: biochemical
- Assay type: biochemical
- Cond: 15 nM tritium labelled cAMP, 1 hr at room temperature, SPA beads
Measured IC50, listed per entry.
Kindly provide the numeric value in nM only, without the unit symbol.

> print(dat)
                                   compound  endpoint  value.reported
1  COc1ccccc1-c1cc(NCc2cnn(C)c2)c2c(n1)c(C)nn2C(C)C [Example 63]      IC50              20
2  CCOc1ncccc1-c1cc(NCc2cccnc2)c2c(n1)c(C)nn2C(C)C [Example 115]      IC50              31
3  Cc1nn(C(C)C)c2c(NCc3cc[nH]n3)cc(-c3ccc[nH]c3=O)nc12 [Example 187]      IC50             250
4  CCOc1ncccc1-c1cc(NCc2cncnc2OC)c2c(n1)c(C)nn2C(C)C [Example 190]      IC50              94

IC50 of CCOc1ncccc1-c1cc(NCc2nn[nH]n2)c2c(n1)c(C)nn2C(C)C [Example 99] , assay on UniProt:Q14123, is 3.8

IC50 of COc1ncccc1-c1cc(NCc2cccnc2C(F)(F)F)c2c(n1)c(C)nn2C(C)C [Example 170] , assay on UniProt:Q14123, is 46

IC50 of CCOc1ncccc1-c1cc(NCc2nnco2)c2c(n1)c(C)nn2C(C)C [Example 59] , assay on UniProt:Q14123, is 120

IC50 of CCOc1ncccc1-c1cc(NCc2cnn(C)c2)c2c(n1)c(C)nn2C1COC1 [Example 27] , assay on UniProt:Q14123, is 170

====

- System: PDE1A (Homo sapiens (Human), UniProt P54750)
- Sequence (P54750 whole entry): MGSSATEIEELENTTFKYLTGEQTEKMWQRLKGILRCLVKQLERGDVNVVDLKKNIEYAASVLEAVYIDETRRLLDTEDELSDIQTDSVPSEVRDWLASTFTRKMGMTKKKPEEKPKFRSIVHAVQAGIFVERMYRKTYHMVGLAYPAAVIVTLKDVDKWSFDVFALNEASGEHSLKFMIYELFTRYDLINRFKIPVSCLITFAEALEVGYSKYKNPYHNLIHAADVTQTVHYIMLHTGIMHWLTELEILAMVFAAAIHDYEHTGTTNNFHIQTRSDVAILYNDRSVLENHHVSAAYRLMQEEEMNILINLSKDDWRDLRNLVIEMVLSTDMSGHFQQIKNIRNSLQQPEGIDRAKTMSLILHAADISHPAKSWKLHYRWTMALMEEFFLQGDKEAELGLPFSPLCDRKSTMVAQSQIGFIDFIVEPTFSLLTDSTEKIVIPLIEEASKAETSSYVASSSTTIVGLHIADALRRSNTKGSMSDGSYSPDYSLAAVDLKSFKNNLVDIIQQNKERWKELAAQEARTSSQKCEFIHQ
- Assay Overview: biochemical
- Type: biochemical
- Cond: 15 nM tritium labelled cAMP, 1 hr at room temperature, SPA beads
pIC50: −log10 of the molar value.
Use 7 as the dividing line for pIC50, with the line itself on the criterion met side and lower values as criterion not met.

Would you please look over these solved cases?
> print(dat)
                        structure.as.smiles        group.label
1  CCNc1ncccc1-c1cc(NCc2cnn(C)c2)c2c(n1)c(C)nn2C(C)C  criterion not met
2  CCOc1ncccc1-c1cc(NCc2csc(C)n2)c2c(n1)c(C)nn2C(C)C      criterion met
3  CCOc1ncccc1-c1cc(CCc2cncc(OC)c2)c2c(n1)c(C)nn2C(C)C  criterion not met
4  CCOc1ncccc1-c1cc(NCc2ccn(C)n2)c2c(n1)c(C)nn2C(C)C      criterion met

Now turn to the next compound.
Q: For this compound, is measured pIC50 7 or higher? CCOc1ncccc1-c1cc(NCc2cc(OC)ncn2)c2c(n1)c(C)nn2C(C)C
Result: criterion met

====

- System: PDE1C (Homo sapiens (Human))
- Sequence (Q14123 whole entry): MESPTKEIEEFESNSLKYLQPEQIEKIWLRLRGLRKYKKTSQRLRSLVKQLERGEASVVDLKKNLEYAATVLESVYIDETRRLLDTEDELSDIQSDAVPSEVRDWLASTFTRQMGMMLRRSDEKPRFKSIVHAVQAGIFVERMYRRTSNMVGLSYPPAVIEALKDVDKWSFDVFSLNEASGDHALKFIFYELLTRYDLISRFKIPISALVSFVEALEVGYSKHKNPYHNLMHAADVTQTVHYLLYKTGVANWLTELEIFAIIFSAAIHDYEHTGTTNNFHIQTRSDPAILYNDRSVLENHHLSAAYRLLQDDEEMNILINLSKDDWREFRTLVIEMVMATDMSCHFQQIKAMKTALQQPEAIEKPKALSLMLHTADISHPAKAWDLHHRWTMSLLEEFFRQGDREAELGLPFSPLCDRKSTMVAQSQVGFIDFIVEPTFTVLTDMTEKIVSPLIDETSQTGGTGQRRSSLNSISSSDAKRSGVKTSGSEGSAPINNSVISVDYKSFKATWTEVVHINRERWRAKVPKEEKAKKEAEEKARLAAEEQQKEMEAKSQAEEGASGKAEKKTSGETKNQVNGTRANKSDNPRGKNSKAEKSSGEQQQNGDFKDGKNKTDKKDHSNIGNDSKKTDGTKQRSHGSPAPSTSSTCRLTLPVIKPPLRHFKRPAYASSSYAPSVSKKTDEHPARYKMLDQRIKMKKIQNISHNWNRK
- Assay Overview: biochemical
- Type: biochemical
- Cond: 15 nM tritium labelled cAMP, 1 hr at room temperature, SPA beads
pIC50: −log10 of the molar value.
Use 8 as the dividing line for pIC50, with the line itself on the 1 side and lower values as -1.

Would you please look over these solved cases?
> print(dat)
                                   compound  group.label
1  CCOc1ncccc1-c1cc(NCc2cccc(C(F)(F)F)n2)c2c(n1)c(C)nn2C(C)C [Example 107]           -1
2  CCCOc1ncccc1-c1cc(NCc2ncn(C)n2)c2c(n1)c(C)nn2C(C)CC (single isomer, unassigned) [Example 134]            1
3  CCOc1ncccc1-c1cc(NCc2cnn(C)c2)c2c(n1)c(C)nn2C [Example 28]           -1
4  CCOc1ncccc1-c1cc(NCc2ncc(OC)cn2)c2c(n1)c(C)nn2C(C)C [Example 176]           -1
5  CCOc1ncccc1-c1cc(NCc2cnccc2OC)c2c(n1)c(C)nn2C(C)C [Example 92]           -1

Now turn to the next compound.
Q: For this compound, is measured pIC50 8 or higher? CCOc1ncccc1-c1cc(NCc2ccn(C)n2)c2c(n1)c(C)nn2C(C)CC (single isomer, unassigned) [Example 67]
Result: -1

====

- System: PDE1B (Homo sapiens (Human), UniProt Q01064)
- Sequence (Q01064 whole entry): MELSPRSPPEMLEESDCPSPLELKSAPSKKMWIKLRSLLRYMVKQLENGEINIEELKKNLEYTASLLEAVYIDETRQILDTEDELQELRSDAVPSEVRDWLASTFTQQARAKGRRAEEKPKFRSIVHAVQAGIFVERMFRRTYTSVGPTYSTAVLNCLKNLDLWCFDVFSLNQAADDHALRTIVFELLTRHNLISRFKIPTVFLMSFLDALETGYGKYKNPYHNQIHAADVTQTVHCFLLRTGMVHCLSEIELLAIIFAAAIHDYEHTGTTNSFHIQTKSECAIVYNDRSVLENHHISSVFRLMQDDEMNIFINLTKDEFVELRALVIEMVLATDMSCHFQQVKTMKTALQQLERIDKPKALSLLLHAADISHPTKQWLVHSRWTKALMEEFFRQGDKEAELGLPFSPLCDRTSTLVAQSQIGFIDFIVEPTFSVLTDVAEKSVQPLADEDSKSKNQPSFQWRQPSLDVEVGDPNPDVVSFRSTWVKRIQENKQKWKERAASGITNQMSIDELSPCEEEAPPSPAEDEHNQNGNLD
- Assay Overview: PDE1 inhibition assay (PDE1B)
- Type: biochemical
- Cond: 15 nM tritium labelled cAMP, 1 hr at room temperature, SPA beads; read-out: PDE1B, IC50
Measured pIC50, listed per entry.
Kindly note that pIC50 refers to -log10 of the concentration in mol/L and answer with the value alone.

pIC50 of CCCOc1ncccc1-c1cc(NCc2cnn(C)c2)c2c(n1)c(C)nn2C(C)C [Example 94] , assay on PDE1B (Homo sapiens (Human), UniProt Q01064), is 10.19

pIC50 of CCOc1ncccc1-c1cc(NCc2cnccc2OC)c2c(n1)c(C)nn2C(C)C [Example 92] , assay on PDE1B (Homo sapiens (Human), UniProt Q01064), is 8.57

pIC50 of CCOc1ncccc1-c1cc(NCc2nc(C)cs2)c2c(n1)c(C)nn2C(C)C [Example 29] , assay on PDE1B (Homo sapiens (Human), UniProt Q01064), is 8.96

pIC50 of CCOc1ncccc1-c1cc(NCc2cn[nH]c2)c2c(n1)c(C)nn2C(C)C [Example 7] , assay on PDE1B (Homo sapiens (Human), UniProt Q01064), is 8.96

pIC50 of CCOc1ncccc1-c1cc(NCc2cnn(C)c2)c2c(n1)c(C)nn2C1CC1 [Example 12] , assay on PDE1B (Homo sapiens (Human), UniProt Q01064), is 7.22

====

- System: PDE1A (Homo sapiens (Human))
- Assay Overview: biochemical
- Assay type: biochemical
- Cond: 15 nM tritium labelled cAMP, 1 hr at room temperature, SPA beads
Endpoint: log10 of IC50 (log10 of the value in nM)
Heads up: the numbers are on a log10 scale; they represent IC50 in nM.

> print(dat)
                                   compound                        system  value.reported
1  CCOc1ncccc1-c1cc(NCc2ccc(F)nc2)c2c(n1)c(C)nn2C(C)C [Example 116]  PDE1A (Homo sapiens (Human))            1.32

Note to self: log10 of IC50 recorded for CCOc1ncccc1-c1cc(NCc2cnccc2OC)c2c(n1)c(C)nn2C(C)C [Example 92] was 1.67

Note to self: log10 of IC50 recorded for CCCOc1ncccc1-c1cc(NCc2ncn(C)n2)c2c(n1)c(C)nn2C(C)C [Example 145] was -0.39

Note to self: log10 of IC50 recorded for CCOc1ncccc1-c1cc(NCc2nnc(C)o2)c2c(cnn2C(C)CC)n1 (single isomer, unassigned) [Example 139] was 2.52

Note to self: log10 of IC50 recorded for Cc1nn(C(C)C)c2c(NCc3cnn(C)c3)cc(N3CCCC3=O)nc12 [Example 154] was 1.41

Note to self: log10 of IC50 recorded for CCOc1ncccc1-c1cc(NCc2cnn(C)c2)c2c(n1)c(C)nn2C [Example 28] was 2.74

Note to self: log10 of IC50 recorded for COc1ncccc1-c1cc(NCc2cccnc2C(F)(F)F)c2c(n1)c(C)nn2C(C)C [Example 170] was 1.62

Note to self: log10 of IC50 recorded for CCOc1ncccc1-c1cc(NCc2ncc(F)cn2)c2c(n1)c(C)nn2C(C)C [Example 83] was 1.23

====

- System: PDE1A (Homo sapiens (Human), UniProt P54750)
- Assay Overview: biochemical
- Type: biochemical
- Cond: 15 nM tritium labelled cAMP, 1 hr at room temperature, SPA beads
Endpoint: IC50 (nM)
Kindly provide the numeric value in nM only, without the unit symbol.

In the examples that follow, each entry is paired with its recorded IC50.
> print(dat)
                                   compound  endpoint  value.reported
1  CCOc1ncccc1-c1cc(NCc2cc[nH]n2)c2c(cnn2C(C)CC)n1 (single isomer, unassigned) [Example 136]      IC50              62
2  CCOc1ncccc1-c1cc(NCc2cn(C)c(C)n2)c2c(n1)c(C)nn2C(C)C [Example 51, 2,2,2-trifluoroacetate]      IC50              53
3  CCOc1ncccc1-c1cc(NCc2ccn(C)c(=O)c2)c2c(n1)c(C)nn2C(C)C      IC50              27
4  CCOc1ncccc1-c1cc(NCc2cncc(OC)n2)c2c(n1)c(C)nn2C(C)C      IC50              16
5  CCOc1ncccc1-c1cc(NCc2cn(C)cn2)c2c(n1)c(C)nn2C(C)C [Example 58, 2,2,2-trifluoroacetate]      IC50             1.1

IC50 of CCCOc1ncccc1-c1cc(NCc2nc[nH]n2)c2c(n1)c(C)nn2C(C)C , assay on PDE1A (Homo sapiens (Human), UniProt P54750), is 3.9

IC50 of CCOc1ncccc1-c1cc(NCc2n[nH]c(C)n2)c2c(n1)c(C)nn2C(C)C , assay on PDE1A (Homo sapiens (Human), UniProt P54750), is 3.4

IC50 of CCCOc1ncccc1-c1cc(NCc2cn(C)cn2)c2c(n1)c(C)nn2C(C)C , assay on PDE1A (Homo sapiens (Human), UniProt P54750), is 0.26

Reference for the values: patent US10034861B2
